- measuredOn: ALPP (Homo sapiens, UniProt P05187)
- Sequence (P05187 with tags, fused parts or gaps): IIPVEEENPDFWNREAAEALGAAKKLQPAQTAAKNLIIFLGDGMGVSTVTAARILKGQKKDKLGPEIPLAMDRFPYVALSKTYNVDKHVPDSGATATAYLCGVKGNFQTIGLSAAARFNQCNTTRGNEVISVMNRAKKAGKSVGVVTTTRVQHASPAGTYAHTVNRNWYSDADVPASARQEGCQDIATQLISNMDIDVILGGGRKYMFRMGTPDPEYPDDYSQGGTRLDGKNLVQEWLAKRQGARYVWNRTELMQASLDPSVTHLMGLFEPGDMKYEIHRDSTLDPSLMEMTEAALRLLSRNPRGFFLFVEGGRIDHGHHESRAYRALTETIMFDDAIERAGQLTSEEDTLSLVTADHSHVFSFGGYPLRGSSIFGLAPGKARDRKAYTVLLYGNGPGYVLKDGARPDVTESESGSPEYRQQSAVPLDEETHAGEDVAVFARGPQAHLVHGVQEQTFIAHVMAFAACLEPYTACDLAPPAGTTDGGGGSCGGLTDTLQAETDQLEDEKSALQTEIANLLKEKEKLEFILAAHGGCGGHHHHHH
- protocolSummary: BLI binding kinetics, human ALPP immobilised on AR2G sensors (KD / KD apparent)
- conditionParameters: VHH domains
testReadout: hALPP Ka
Answer shape: numeric part, then the unit.

Answered cases to consult:
- molecule: "F08: ALPP/ALPPL2 targeting VHH domain, SEQ ID NO: 35 (protein) VHH: QVQLVESGGGSVQAGGSLRLSCAASGPSLSNYAMGWFRQAPGKEREFVAGISWGGGRTSYTDSVKGRFTISRDNAKNTVYLQMNNLKPEDTGVYYCAGRYGRGRNVEYEYDYWGQGTQVTVSS"
  result: "252000 M⁻¹ s⁻¹"
- molecule: "D10: ALPP targeting VHH domain, SEQ ID NO: 28 (protein) VHH: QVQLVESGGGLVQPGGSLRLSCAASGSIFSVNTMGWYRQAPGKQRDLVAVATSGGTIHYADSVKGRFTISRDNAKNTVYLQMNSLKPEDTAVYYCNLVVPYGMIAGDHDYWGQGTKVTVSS"
  result: "67300 M⁻¹ s⁻¹"

Recorded hALPP Ka of H10: ALPP targeting VHH domain, SEQ ID NO: 40 (protein) VHH: QVQLVESGGGSVQTGGSLRLSCAASGPSLSNYAMGWFRQAPGKEREFVAGISWGGGRTNYLDSVKGRFTISRDNAKNTMYLQMNSLKPEDAAVYYCAGRYGRGRDVEYEYDYWGQGTQVTVSS , please.
45900 M⁻¹ s⁻¹

Data origin: patent US20260216242A1
